# Test system: MOLM-13
# assay text: Cell proliferation inhibition (CellTiter-Glo), MOLM-13
# Format: cell-based
# assay context: Homo sapiens, MOLM-13, 168 h, MOLM-13 cells
assay metric: GI50 (nM)

I: CC(C)N(C(=O)c1cc(F)ccc1Oc1nncnc1N1CC2(CCN(C[C@H]3CC[C@]4(CC3)CC(C(C)(C)O)C(=O)N4)CC2)C1)C(C)C (single isomer, unassigned) [Example 59-1a]
II: CC(C)N(C(=O)c1cc(F)ccc1Oc1nncnc1N1CC2(CCN(CC3CC4CCC3CC43CCC(=O)N3)CC2)C1)C(C)C (single isomer, unassigned)
III: CCN(C(=O)c1cc(F)ccc1Oc1nncnc1N1CC2(CCN(C[C@H]3CC[C@]4(CC3)CC3(CCOCC3)C(=O)N4)CC2)C1)C(C)C
Q: Sort by GI50 with smallest numbers at the start of the list. Respond with the label ranking, as requested.
A: I, III, II

---

# assay text: Pharmacokinetics test in mouse
# Assay type: in vivo, ICR mice
# assay context: male, ICR, mouse, plasma, po, 10 mg/kg, mice, p.o. 10 mg/kg
assay metric: half-life (h)

Use these answered entries as a reference point.
CC(C)N(C(=O)c1cc(F)ccc1Oc1cncnc1N1CC2(CCN(C[C@H]3CC[C@@]4(CCC(=O)N4)CC3)CC2)C1)C(C)C :: 1.37
COC[C@H]1C[C@]2(CC[C@@H](CN3CCC4(CC3)CN(c3ncnnc3Oc3ccc(F)cc3C(=O)N(C(C)C)C(C)C)C4)CC2)NC1=O :: 1.06
COCC1(COC)C[C@]2(CC[C@@H](CN3CCC4(CC3)CN(c3ncnnc3Oc3ccc(F)cc3C(=O)N(C(C)C)C(C)C)C4)CC2)NC1=O :: 1.88
COCC1(COC)C[C@]2(CC[C@@H](CN3CCC4(CC3)CN(c3ncncc3Oc3ccc(F)cc3C(=O)N(C(C)C)C(C)C)C4)CC2)NC1=O :: 1.34
CCN(C(=O)c1cc(F)ccc1Oc1cncnc1N1CC2(CCN(C[C@H]3CC[C@@]4(CCC(=O)N4)CC3)CC2)C1)C(C)C :: 1.51

1: CCN(C(=O)c1cc(F)ccc1Oc1cncnc1N1CC2(CCN(C[C@H]3CC[C@]4(CC3)CC(COC)(COC)C(=O)N4)CC2)C1)C(C)C
2: CC(C)N(C(=O)c1cc(F)ccc1Oc1cncnc1N1CC2(CCN(C[C@H]3CC[C@]4(CC3)CC(C)(C)C(=O)N4)CC2)C1)C1CC1
3: CC(C)N(C(=O)c1cc(F)ccc1Oc1cncnc1N1CC2(CCN(CC3CC4CCC3CC43CCC(=O)N3)CC2)C1)C(C)C (single isomer, unassigned)
Q: Your job: order these 3 records by half-life, ascending. Respond with the label ranking, as requested.
A: 1, 2, 3
(1: 1.12 h, 2: 2.52 h, 3: 3.84 h)

---

# System: MV4-11
# assay text: Cell proliferation inhibition (CellTiter-Glo), MV4-11
# Assay type: cell-based
# assay context: Homo sapiens, MV4-11, 72 h, MV4-11 cells
# Source text: Test Example 2: Test of the Inhibitory Ability of Menin-MLL Interaction Inhibitors on Cell Proliferation […]
assay metric: GI50 (nM)

Use these answered entries as a reference point.
CCN(C(=O)c1cc(F)ccc1Oc1nncnc1N1CC2(CCN(C[C@H]3CC[C@]4(CC3)C[C@H](COC)C(=O)N4)CC2)C1)C(C)C :: 88.3
CC(C)N(C(=O)c1cc(F)ccc1Oc1nncnc1N1CC2(CCN(CC3CC4CCC3CC43CCC(=O)N3)CC2)C1)C1CC1 (stereo not drawn) :: 130

P: CCN(C(=O)c1cc(F)ccc1Oc1nncnc1N1CC2(CCN(CC3CC4CCC3CC43CCC(=O)N3)CC2)C1)C(C)C (single isomer, unassigned)
Q: C=C1C[C@]2(CC[C@@H](CN3CCC4(CC3)CN(c3ncncc3Oc3ccc(F)cc3C(=O)N(C(C)C)C(C)C)C4)CC2)NC1=O
R: CCN(C(=O)c1cc(F)ccc1Oc1nncnc1N1CC2(CCN(C[C@H]3CC[C@@]4(CCC(=O)N4)CC3)CC2)C1)C(C)C
S: CC(C)N(C(=O)c1cc(F)ccc1Oc1nncnc1N1CC2(CCN(C[C@H]3CC[C@]4(CC3)CC(C)(C)C(=O)N4)CC2)C1)C(C)C
Q: Your job: order these 4 records by GI50, ascending. Respond with the label ranking, as requested.
A: S, Q, P, R
(S: 13 nM, Q: 34.8 nM, P: 86.1 nM, R: 137 nM)
